System: IL-1α
Method: Inhibition of IL-1 production by stimulated human peripheral blood leukocytes in vitro
Assay type: cell-based
Test Context: Homo sapiens, Leukocyte, PBL, LPS stimulated, compound 10 μM; read-out: Percentage of inhibition of IL-1α production

Compound: CC[C@H]1OC(=O)[C@H](C)[C@@H](O[C@H]2C[C@@](C)(OC)[C@@H](O)[C@H](C)O2)[C@H](C)[C@@H](O[C@@H]2O[C@H](C)C[C@H](N(C)C)[C@H]2O)[C@](C)(O)C[C@@H](C)CN(C)[C@H](C)[C@@H](O)[C@]1(C)O [Azithromycin, azithromycin, reference compound]
Target Or Test System: IL-1α
inhibition at 10 µM [%]: 28
//
Compound: CC[C@H]1OC(=O)[C@H](C)[C@@H](O[C@H]2C[C@@](C)(OC)[C@@H](O)[C@H](C)O2)[C@H](C)[C@@H](O[C@@H]2O[C@H](C)C[C@H](N(C)C)[C@H]2O)[C@](C)(OC)C[C@@H](C)C(=O)[C@H](C)[C@@H](O)[C@]1(C)O [Clarithromycin, clarithromycin, reference compound]
Target Or Test System: IL-1α
inhibition at 10 µM [%]: 0
//
Compound: CC[C@H]1OC(=O)[C@H](C)[C@@H](O)[C@H](C)[C@@H](O[C@@H]2O[C@H](C)C[C@H](N(C)C)[C@H]2O)[C@](C)(O)C[C@@H](C)CN(C(=O)Nc2cccc(C(F)(F)F)c2)[C@H](C)[C@@H](O)[C@]1(C)O [Compound 13]
Target Or Test System: IL-1α
inhibition at 10 µM [%]: 0
//
Compound: CC[C@H]1OC(=O)[C@H](C)[C@@H](O[C@H]2C[C@@](C)(OC)[C@@H](O)[C@H](C)O2)[C@H](C)[C@@H](O[C@@H]2O[C@H](C)C[C@H](N(C)C)[C@H]2O)[C@](C)(O)C[C@@H](C)CN(C(=S)Nc2cccc(Br)c2)[C@H](C)[C@@H](O)[C@]1(C)O [Compound 6]
Target Or Test System: IL-1α
inhibition at 10 µM [%]: 64

----------
Tested on: IL-8
Method: Inhibition of IL-8 production by stimulated human peripheral blood leukocytes in vitro
Format: cell-based
Test Context: PBL, LPS stimulated, compound 10 μM
Experimental Endpoint: Percentage of inhibition of IL-8 production (%)

Molecule: CCC1OC(=O)C(C)C(OC2CC(C)(OC)C(O)C(C)O2)C(C)C(OC2OC(C)CC(N(C)C)C2O)C(C)(O)CC(C)CN(C(=S)Nc2cccc(F)c2)C(C)C(O)C1(C)O (stereo not shown) [Compound 3]
Unit Symbol: %
Observed Value: 38

----------
In this section, each of the molecules is paired with its reported inhibition at 10 µM.
Test system: TNF-α
Method: Inhibition of TNF-α production by stimulated human peripheral blood leukocytes in vitro
Assay type: cell-based
Test Context: Homo sapiens, Leukocyte, PBL, zymosan stimulated, compound 10 μM; read-out: Percentage of inhibition of TNF-α production
Experimental Endpoint: inhibition at 10 µM (%)

Molecule: CC[C@H]1OC(=O)[C@H](C)[C@@H](O[C@H]2C[C@@](C)(OC)[C@@H](O)[C@H](C)O2)[C@H](C)[C@@H](O[C@@H]2O[C@H](C)C[C@H](N(C)C)[C@H]2O)[C@](C)(O)C[C@@H](C)CN(C(=O)NC(C)c2cccc3ccccc23)[C@H](C)[C@@H](O)[C@]1(C)O (some centres unmarked)
Observed Value: 70
//
Molecule: CC[C@H]1OC(=O)[C@H](C)[C@@H](O[C@H]2C[C@@](C)(OC)[C@@H](O)[C@H](C)O2)[C@H](C)[C@@H](O[C@@H]2O[C@H](C)C[C@H](N(C)C)[C@H]2O)[C@](C)(OC)C[C@@H](C)C(=O)[C@H](C)[C@@H](O)[C@]1(C)O [Clarithromycin, clarithromycin, reference compound]
Observed Value: 0
//
Molecule: CC[C@H]1OC(=O)[C@H](C)[C@@H](O)[C@H](C)[C@@H](O[C@@H]2O[C@H](C)C[C@H](N(C)C)[C@H]2O)[C@](C)(O)C[C@@H](C)CN(C(=O)Nc2cccc(C(F)(F)F)c2)[C@H](C)[C@@H](O)[C@]1(C)O
Observed Value: 0
//
Molecule: CC[C@H]1OC(=O)[C@H](C)[C@@H](O[C@H]2C[C@@](C)(OC)[C@@H](O)[C@H](C)O2)[C@H](C)[C@@H](O[C@@H]2O[C@H](C)C[C@H](N(C)C)[C@H]2O)[C@](C)(O)C[C@@H](C)CN(C(=S)Nc2cccc(C(F)(F)F)c2)[C@H](C)[C@@H](O)[C@]1(C)O
Observed Value: 36
//
Molecule: CC[C@H]1OC(=O)[C@H](C)[C@@H](O[C@H]2C[C@@](C)(OC)[C@@H](O)[C@H](C)O2)[C@H](C)[C@@H](O[C@@H]2O[C@H](C)C[C@H](N(C)C)[C@H]2O)[C@](C)(O)C[C@@H](C)CN(C(=S)Nc2cccc(Br)c2)[C@H](C)[C@@H](O)[C@]1(C)O
Observed Value: 36
//
Molecule: CC[C@H]1OC(=O)[C@H](C)[C@@H](O[C@H]2C[C@@](C)(OC)[C@@H](O)[C@H](C)O2)[C@H](C)[C@@H](O[C@@H]2O[C@H](C)C[C@H](N(C)C)[C@H]2O)[C@](C)(O)C[C@@H](C)CN(C)[C@H](C)[C@@H](O)[C@]1(C)O [Azithromycin, azithromycin, reference compound]
Observed Value: 6
//
Molecule: CC[C@H]1OC(=O)[C@H](C)[C@@H](O[C@H]2C[C@@](C)(OC)[C@@H](O)[C@H](C)O2)[C@H](C)[C@@H](O[C@@H]2O[C@H](C)C[C@H](N(C)C)[C@H]2O)[C@](C)(O)C[C@@H](C)CN(C(=O)Nc2ccc(C(F)(F)F)cc2)[C@H](C)[C@@H](O)[C@]1(C)O
Observed Value: 39
//
Molecule: CC[C@H]1OC(=O)[C@H](C)[C@@H](O[C@H]2C[C@@](C)(OC)[C@@H](O)[C@H](C)O2)[C@H](C)[C@@H](O[C@@H]2O[C@H](C)C[C@H](N(C)C)[C@H]2O)[C@](C)(O)C[C@@H](C)CN(C(=S)Nc2ccccc2F)[C@H](C)[C@@H](O)[C@]1(C)O
Observed Value: 49
